EXPERIMENT DESCRIPTION: Experimentally determined log D
Type: physicochemical
REPORTED PROPERTY: logD
// return just the number, without any unit appended

Let me know recorded logD for CC(=O)C1C(=O)c2ccc(C(=O)c3ccc4c(c3)C(=O)C(C(C)=O)C4=O)cc2C1=O (stereo not shown) [Example 1] , thanks.
0.53

* * *

TARGET OR SYSTEM: human PF4 (Homo sapiens, UniProt P02776)
Construct: PF4 is a 70 amino acid, lysine-rich 7.8 kDa platelet-specific protein; made in house; host or cells: Escherichia coli BL21DE3 pLysS (pT7-7) and/or Drosophila S2 cells
Sequence (P02776 32-101): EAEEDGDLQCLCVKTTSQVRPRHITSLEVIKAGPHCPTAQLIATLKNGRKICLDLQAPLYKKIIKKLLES
EXPERIMENT DESCRIPTION: Inhibition of PF4 tetramer formation (BS3 cross-linking, SDS-PAGE)
Type: biochemical
TEST CONDITIONS: 1 μM inhibitor; read-out: % inhibition of PF4 tetramer formation at single concentration of inhibitor
REPORTED PROPERTY: inhibition at 1 µM (%)
All answers are understood in %, so give the number only.

COMPOUND	inhibition at 1 µM [%]
O=C1c2ccc(S(=O)(=O)c3ccc4c(c3)C(=O)C(C(=O)C3CCC3)C4=O)cc2C(=O)C1C(=O)C1CCC1 (stereo not shown)	22
O=C1c2ccc(Oc3ccc4c(c3)C(=O)C(C(=O)C3CCCC3)C4=O)cc2C(=O)C1C(=O)C1CCCC1 (stereo not shown)	32

Attention now shifts to the item below.
Let me know recorded inhibition at 1 µM for CC(C)[C@@H](N)C(=O)C1C(=O)c2ccc(Oc3ccc4c(c3)C(=O)C(C(=O)[C@H](N)C(C)C)C4=O)cc2C1=O (stereo partly shown) , thanks.
12
